These measurements were taken from ChEMBL document CHEMBL3243948.

# System: TA3
# method.summary: Growth inhibition of mouse TA3 cells in presence of 10^-7 M pyridoxal
# Type: functional
ID50 overview

>>> df
                                 cpd_smiles      result
0  O=C(SCc1ncc(CO)c(CO)c1OCc1ccccc1)c1ccccc1   3 ×10⁻⁵ M
1                       NCc1ncc(CO)c(CO)c1O   1 ×10⁻⁵ M
2                    CNc1ncc(CO)c(CO)c1O.Cl   1 ×10⁻⁴ M
3                        OCc1cnc(F)c(O)c1CO  >1 ×10⁻⁴ M
4   CC1(C)OCc2cnc(CCl)c(OCc3ccccc3)c2CO1.Cl  12 ×10⁻⁵ M

We next turn to a different compound, shown below.
Measured ID50 (TA3), entry "Br.COC(=O)N(C)c1ncc(CO)c(CO)c1OCc1ccccc1" : 1.6 ×10⁻⁴ M

* * *

ID50 overview
# Test system: TA3
# method.summary: Growth inhibition of mouse TA3 cells in presence of 10^-7 M pyridoxal
# Type: functional

                                 cpd_smiles        result
0  OCc1cnc(/C=N/N=C/c2ncc(CO)c(CO)c2O)c(O)c1CO   1.6 ×10⁻⁵ M
1                Cn1c(=O)oc2c(CO)c(CO)cnc21    >1 ×10⁻⁴ M
2                     Cl.Nc1ncc(CO)c(CO)c1O  1.25 ×10⁻⁵ M

We next turn to a different compound, shown below.
So, "NC(=O)c1ncc(CO)c(CO)c1O" ? Its ID50 was 1 ×10⁻⁴ M

* * *

ID50 overview
# Test system: TA3
# method.summary: Growth inhibition of mouse TA3 cells in presence of 10^-7 M pyridoxal
# Format: functional

These recorded examples may help you get a feel for the data.
>>> df
                cpd_smiles       result
0  N/N=C/c1ncc(CO)c(CO)c1O  2.3 ×10⁻⁴ M
1      OCc1cnc(Cl)c(O)c1CO  4.5 ×10⁻⁵ M

So, "O=Cc1ncc(CO)c(CO)c1O" ? Its ID50 was 1.7 ×10⁻⁴ M

So, "O=C(O)c1ncc(CO)c(CO)c1O" ? Its ID50 was >1 ×10⁻⁴ M
